Values from paper PMC10786891

# TARGET OR TEST SYSTEM: T1, EsCas13d, nuclease-dead (Eubacterium siraeum, UniProt B0MS50, R295A;H300A;R849A;H854A)
# T1 sequence: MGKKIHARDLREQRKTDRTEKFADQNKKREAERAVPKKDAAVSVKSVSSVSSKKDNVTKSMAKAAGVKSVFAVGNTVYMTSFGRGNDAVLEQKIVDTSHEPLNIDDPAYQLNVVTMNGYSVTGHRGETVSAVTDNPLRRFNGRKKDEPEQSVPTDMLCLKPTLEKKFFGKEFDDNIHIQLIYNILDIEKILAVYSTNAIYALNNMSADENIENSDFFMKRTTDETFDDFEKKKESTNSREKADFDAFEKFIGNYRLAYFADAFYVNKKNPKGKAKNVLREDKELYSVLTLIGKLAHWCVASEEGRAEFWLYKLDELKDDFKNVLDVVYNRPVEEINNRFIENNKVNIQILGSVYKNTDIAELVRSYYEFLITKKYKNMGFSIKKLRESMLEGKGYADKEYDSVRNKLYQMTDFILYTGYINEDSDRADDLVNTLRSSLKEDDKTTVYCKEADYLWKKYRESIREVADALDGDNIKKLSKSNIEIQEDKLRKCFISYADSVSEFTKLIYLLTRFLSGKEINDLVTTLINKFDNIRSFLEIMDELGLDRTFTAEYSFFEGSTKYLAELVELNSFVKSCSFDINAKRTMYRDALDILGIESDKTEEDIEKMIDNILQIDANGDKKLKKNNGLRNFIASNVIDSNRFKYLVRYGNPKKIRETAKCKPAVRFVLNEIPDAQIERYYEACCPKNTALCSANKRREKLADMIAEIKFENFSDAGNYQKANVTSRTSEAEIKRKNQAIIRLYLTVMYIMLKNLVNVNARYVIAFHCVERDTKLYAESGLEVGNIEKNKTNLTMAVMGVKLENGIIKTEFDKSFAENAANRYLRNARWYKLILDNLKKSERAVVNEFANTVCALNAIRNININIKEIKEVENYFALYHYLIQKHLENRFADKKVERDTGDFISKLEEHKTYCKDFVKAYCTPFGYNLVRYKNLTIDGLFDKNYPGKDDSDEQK
# TEST NAME: crRNA (strand 1, pre-loaded); Mg2+; 40 mM Tris-HCl pH 7.5, 150 mM NaCl, 6 mM MgCl2, 1 mM DTT, 0.1% Tween-20, 0.2 mg/ml BSA; 25 C; 10 min per concentration, then washed
# SETTINGS: tags: His6-TwinStrep-SUMO cleaved; N-terminal SNAP kept (SNAP-Surface 488); label: 3' end held by stalled T7 RNA polymerase
pKd: −log10 of the molar value.
The binders listed here are annotated with their pKd.
PROPERTY: pKd

| BINDER | RECORDED RESULT |
| --- | --- |
| target 1 insA 3' of 19,insC 3' of 13 (mixed) RNA 1: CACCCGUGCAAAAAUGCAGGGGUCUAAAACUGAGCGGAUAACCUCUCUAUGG RNA 2: GGGAAUGGAUCCACAUCUACGAAUUCGUACCAUAAGAGAGCGUUAUCCGCUCACCGAGAUCGGAAGAGCACACGU | 7.45 |
| target 1 C2U,A18C (mixed) RNA 1: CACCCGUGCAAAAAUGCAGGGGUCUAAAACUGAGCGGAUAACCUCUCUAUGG RNA 2: GGGAAUGGAUCCACAUCUACGAAUUCGUACCAUCGAGAGGUUAUCCGCUUACCGAGAUCGGAAGAGCACACGU | 7.31 |
| target 1 C6G,G13A (mixed) RNA 1: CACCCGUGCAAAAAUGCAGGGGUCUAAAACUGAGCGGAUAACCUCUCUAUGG RNA 2: GGGAAUGGAUCCACAUCUACGAAUUCGUACCAUAGAGAAGUUAUCGGCUCACCGAGAUCGGAAGAGCACACGU | 8.00 |
| target 3 insC 3' of 9,insU 3' of 3 (mixed) RNA 1: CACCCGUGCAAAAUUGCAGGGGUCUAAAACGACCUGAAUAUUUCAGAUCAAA RNA 2: GGGAAUGGAUCCACAUCUACGAAUUCGUUUUUGAUCUGAAAUACUUCAGGUUCUGCAGAUCGGAAGAGCACACGU | 6.94 |
| target 1 insA 3' of 15,insG 3' of 6 (mixed) RNA 1: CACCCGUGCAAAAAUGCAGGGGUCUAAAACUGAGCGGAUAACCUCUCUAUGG RNA 2: GGGAAUGGAUCCACAUCUACGAAUUCGUACCAUAGAGAAGGUUAUCCGGCUCACCGAGAUCGGAAGAGCACACGU | 8.03 |
| target 2 MT 5'PFS CAU 3'PFS CGA (mixed) RNA 1: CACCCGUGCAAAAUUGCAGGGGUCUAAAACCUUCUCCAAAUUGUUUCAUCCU RNA 2: GGGAAUGGAUCCACAUCUACGAAUUCCAUAGGAUGAAACAAUUUGGAGAAGCGAAGAUCGGAAGAGCACACGU | 8.42 |
| target 1 MT 5'PFS GUA 3'PFS GAU (mixed) RNA 1: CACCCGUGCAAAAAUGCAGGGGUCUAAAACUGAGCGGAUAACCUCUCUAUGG RNA 2: GGGAAUGGAUCCACAUCUACGAAUUCGUACCAUAGAGAGGUUAUCCGCUCAGAUAGAUCGGAAGAGCACACGU | 7.90 |
